Provide the reported fold loss in affinity (cf rapamycin) of each item.
target: FKBPwt (Homo sapiens); construct: made in house; assay: Competitive fluorescence polarization (FP) binding assay of rapalogs to FKBP; settings: =IC50/IC50 of rapamycin; C7 rapalogs
Reply: number alone, nothing else.

Per the reported FKBPwt (Homo sapiens) data, CCOC1C[C@@H]2CC[C@@H](C)[C@@](O)(O2)C(=O)C(=O)N2CCCC[C@H]2C(=O)OC([C@H](C)C[C@@H]2CC[C@@H](O)[C@H](OC)C2)CC(=O)[C@H](C)/C=C(\C)[C@@H](O)[C@@H](OC)C(=O)[C@H](C)C[C@H](C)/C=C/C=C/C=C/1C (stereo partly shown) [Compound 27] has fold loss in affinity (cf rapamycin) of 1.1

# lookup: CO[C@@H]1C[C@H](C[C@@H](C)[C@@H]2CC(=O)[C@H](C)/C=C(\C)[C@@H](O)[C@@H](OC)C(=O)[C@H](C)C[C@H](C)/C=C/C=C/C=C(\C)[C@@H](c3ccco3)C[C@@H]3CC[C@@H](C)[C@@](O)(O3)C(=O)C(=O)N3CCCC[C@H]3C(=O)O2)CC[C@H]1O [Compound 34] on FKBPwt (Homo sapiens), fold loss in affinity (cf rapamycin) = 12

Assay FKBPwt (Homo sapiens), sample CCc1ccc([C@@H]2C[C@@H]3CC[C@@H](C)[C@@](O)(O3)C(=O)C(=O)N3CCCC[C@H]3C(=O)O[C@H]([C@H](C)C[C@@H]3CC[C@@H](O)[C@H](OC)C3)CC(=O)[C@H](C)/C=C(\C)[C@@H](O)[C@@H](OC)C(=O)[C@H](C)C[C@H](C)/C=C/C=C/C=C/2C)s1 [Compound 39] , fold loss in affinity (cf rapamycin) read: 1.0

fold loss in affinity (cf rapamycin) on FKBPwt (Homo sapiens) for COc1ccc(C2CC3CCC(C)C(O)(O3)C(=O)C(=O)N3CCCCC3C(=O)OC(C(C)CC3CCC(O)C(OC)C3)CC(=O)C(C)C=C(C)C(O)C(OC)C(=O)C(C)CC(C)C=CC=CC=C2C)c(OC)c1 (single isomer, unassigned) [Compound 43] is 8.7

Entry COC(=O)N[C@H]1C[C@@H]2CC[C@@H](C)[C@@](O)(O2)C(=O)C(=O)N2CCCC[C@H]2C(=O)O[C@H]([C@H](C)C[C@@H]2CC[C@@H](O)[C@H](OC)C2)CC(=O)[C@H](C)/C=C(\C)[C@@H](O)[C@@H](OC)C(=O)[C@H](C)C[C@H](C)/C=C/C=C/C=C/1C [Compound 32] : fold loss in affinity (cf rapamycin) on FKBPwt (Homo sapiens) = 1.9

The reported FKBPwt (Homo sapiens) fold loss in affinity (cf rapamycin) of CO[C@@H]1C[C@H](C[C@@H](C)[C@@H]2CC(=O)[C@H](C)/C=C(\C)[C@@H](O)[C@@H](OC)C(=O)[C@H](C)C[C@H](C)/C=C/C=C/C=C(\C)[C@H](c3ccc(C(C)(C)C)s3)C[C@@H]3CC[C@@H](C)[C@@](O)(O3)C(=O)C(=O)N3CCCC[C@H]3C(=O)O2)CC[C@H]1O [Compound 40] is 1.5

So the reported fold loss in affinity (cf rapamycin) for CO[C@@H]1C[C@H](C[C@@H](C)[C@@H]2CC(=O)[C@H](C)/C=C(\C)[C@@H](O)[C@@H](OC)C(=O)[C@H](C)C[C@H](C)/C=C/C=C/C=C(\C)[C@@H](c3c[nH]c4ccccc34)C[C@@H]3CC[C@@H](C)[C@@](O)(O3)C(=O)C(=O)N3CCCC[C@H]3C(=O)O2)CC[C@H]1O [Compound 44] , on FKBPwt (Homo sapiens), turned out to be 3.3

###

biological target: FKBPwt (Homo sapiens, UniProt P62942); construct: made in house; test: Competitive fluorescence polarization (FP) binding assay of rapalogs to FKBP; conditions: =IC50/IC50 of rapamycin; C7 rapalogs
Sequence (P62942 whole entry): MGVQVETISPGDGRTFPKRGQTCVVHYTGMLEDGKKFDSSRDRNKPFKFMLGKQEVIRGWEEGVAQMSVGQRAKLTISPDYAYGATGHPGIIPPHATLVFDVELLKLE
Provide the reported fold loss in affinity (cf rapamycin) of each item.
Simply state the number, no unit and no words.

For the compound CCc1ccc([C@H]2C[C@@H]3CC[C@@H](C)[C@@](O)(O3)C(=O)C(=O)N3CCCC[C@H]3C(=O)O[C@H]([C@H](C)C[C@@H]3CC[C@@H](O)[C@H](OC)C3)CC(=O)[C@H](C)/C=C(\C)[C@@H](O)[C@@H](OC)C(=O)[C@H](C)C[C@H](C)/C=C/C=C/C=C/2C)s1 [Compound 38] , the measured fold loss in affinity (cf rapamycin) on FKBPwt (Homo sapiens, UniProt P62942) was 1.1

Tested on FKBPwt (Homo sapiens, UniProt P62942): CO[C@@H]1C[C@H](C[C@@H](C)[C@@H]2CC(=O)[C@H](C)/C=C(\C)[C@@H](O)[C@@H](OC)C(=O)[C@H](C)C[C@H](C)/C=C/C=C/C=C(\C)[C@H](c3c[nH]c4ccccc34)C[C@@H]3CC[C@@H](C)[C@@](O)(O3)C(=O)C(=O)N3CCCC[C@H]3C(=O)O2)CC[C@H]1O [Compound 45] . Observed fold loss in affinity (cf rapamycin): 2.6

###

target: FKBPwt (Homo sapiens, UniProt P62942); construct: made in house; assay: Competitive fluorescence polarization (FP) binding assay of rapalogs to FKBP; details: =IC50/IC50 of rapamycin; C24 analogs, Table 4
measured-property: fold loss in affinity (vs rapamycin)
Give the figure only, with no unit attached.

Record CO[C@H]1C[C@@H]2CC[C@@H](C)[C@@](O)(O2)C(=O)C(=O)N2CCCC[C@H]2C(=O)O[C@H]([C@H](C)C[C@@H]2CC[C@@H](O)[C@H](OC)C2)C/C(=N\OCc2ccccc2)[C@H](C)/C=C(\C)[C@@H](O)[C@@H](OC)C(=O)[C@H](C)C[C@H](C)/C=C/C=C/C=C/1C [Compound 12, apamycin (E and Z)-24-(O-benzyloxime)] , field fold loss in affinity (vs rapamycin): 616

Documented fold loss in affinity (vs rapamycin) of COC1CC2CCC(C)C(O)(O2)C(=O)C(=O)N2CCCCC2C(=O)OC(C(C)CC2CCC(O)C(OC)C2)C/C(=N/O)C(C)C=C(C)C(O)C(OC)C(=O)C(C)CC(C)C=CC=CC=C1C (stereo not shown) [Compound 17] : 269

Given item COC1CC2CCC(C)C(O)(O2)C(=O)C(=O)N2CCCCC2C(=O)OC(C(C)CC2CCC(O)C(OC)C2)CC(=NOCC(N)=O)C(C)C=C(C)C(O)C(OC)C(=O)C(C)CC(C)C=CC=CC=C1C (single isomer, unassigned) [Compound 15] , the value recorded as its fold loss in affinity (vs rapamycin) is 500

Lab book: fold loss in affinity (vs rapamycin) of CCO/N=C1/C[C@@H]([C@H](C)C[C@@H]2CC[C@@H](O)[C@H](OC)C2)OC(=O)[C@@H]2CCCCN2C(=O)C(=O)[C@]2(O)O[C@@H](CC[C@H]2C)C[C@H](OC)/C(C)=C/C=C/C=C/[C@@H](C)C[C@@H](C)C(=O)[C@H](OC)[C@H](O)/C(C)=C/[C@H]1C [Compound 7, Rapamycin (E and Z)-24-(O-ethyloxime)] noted as 1287

###

test: Rapamycin pharmacokinetics in mice; assay type: in vivo; conditions: nu/nu, mouse, in vivo; mice, intravenous
measured-property: half-life (h)
Report the figure in h without appending any unit label.

Value of half-life reported for the compound CO[C@H]1C[C@@H]2CC[C@@H](C)[C@@](O)(O2)C(=O)C(=O)N2CCCC[C@H]2C(=O)O[C@H]([C@H](C)C[C@@H]2CC[C@@H](O)[C@H](OC)C2)CC(=O)[C@H](C)/C=C(\C)[C@@H](O)[C@@H](OC)C(=O)[C@H](C)C[C@H](C)/C=C/C=C/C=C/1C [rapamycin, Rapamycin] is 4.6

###

target: FKBPwt (Homo sapiens, UniProt P62942); construct: made in house; assay: Competitive fluorescence polarization (FP) binding assay of rapalogs to FKBP; settings: rapamycin C24 analogs, Table 4; read-out: FKBPwt FP binding assay IC50
measured-property: IC50 (µM)
# output: bare number, implied unit µM

Tested on FKBPwt (Homo sapiens, UniProt P62942), the item COC1CC2CCC(C)C(O)(O2)C(=O)C(=O)N2CCCCC2C(=O)OC(C(C)CC2CCC(O)C(OC)C2)C/C(=N/O)C(C)C=C(C)C(O)C(OC)C(=O)C(C)CC(C)C=CC=CC=C1C (centres unmarked) showed IC50 equal to 0.618

Value sought: IC50, system FKBPwt (Homo sapiens, UniProt P62942), item COC1CC2CCC(C)C(O)(O2)C(=O)C(=O)N2CCCCC2C(=O)OC(C(C)CC2CCC(O)C(OC)C2)C/C(=N\OC(C)(C)C)C(C)C=C(C)C(O)C(OC)C(=O)C(C)CC(C)C=CC=CC=C1C (centres unmarked) . Result: 2.41

# lookup: CO[C@H]1C[C@@H]2CC[C@@H](C)[C@@](O)(O2)C(=O)C(=O)N2CCCC[C@H]2C(=O)O[C@H]([C@H](C)C[C@@H]2CC[C@@H](O)[C@H](OC)C2)C/C(=N\OCc2ccccc2)[C@H](C)/C=C(\C)[C@@H](O)[C@@H](OC)C(=O)[C@H](C)C[C@H](C)/C=C/C=C/C=C/1C [Compound 12, apamycin (E and Z)-24-(O-benzyloxime)] on FKBPwt (Homo sapiens, UniProt P62942), IC50 = 1.42

With FKBPwt (Homo sapiens, UniProt P62942) as the test system, CON=C1CC(C(C)CC2CCC(O)C(OC)C2)OC(=O)C2CCCCN2C(=O)C(=O)C2(O)OC(CCC2C)CC(OC)C(C)=CC=CC=CC(C)CC(C)C(=O)C(OC)C(O)C(C)=CC1C (single isomer, unassigned) [Compound 6, Rapamycin (E and Z)-24-(O-methyloxime)] showed IC50 of 0.438

Entry COC1CC2CCC(C)C(O)(O2)C(=O)C(=O)N2CCCCC2C(=O)OC(C(C)CC2CCC(O)C(OC)C2)C/C(=N\O)C(C)C=C(C)C(O)C(OC)C(=O)C(C)CC(C)C=CC=CC=C1C (centres unmarked) , tested on FKBPwt (Homo sapiens, UniProt P62942), has a reported IC50 of 0.0591

Short answer on FKBPwt (Homo sapiens, UniProt P62942) for COC1CC2CCC(C)C(O)(O2)C(=O)C(=O)N2CCCCC2C(=O)OC(C(C)CC2CCC(O)C(OC)C2)CC(=NOCC(=O)O)C(C)C=C(C)C(O)C(OC)C(=O)C(C)CC(C)C=CC=CC=C1C (single isomer, unassigned) [Compound 14] , IC50: 2.35

The value of IC50 recorded for CCO/N=C1/C[C@@H]([C@H](C)C[C@@H]2CC[C@@H](O)[C@H](OC)C2)OC(=O)[C@@H]2CCCCN2C(=O)C(=O)[C@]2(O)O[C@@H](CC[C@H]2C)C[C@H](OC)/C(C)=C/C=C/C=C/[C@@H](C)C[C@@H](C)C(=O)[C@H](OC)[C@H](O)/C(C)=C/[C@H]1C [Compound 7, Rapamycin (E and Z)-24-(O-ethyloxime)] when tested on FKBPwt (Homo sapiens, UniProt P62942) reads 2.96
